# Tested System: Poly [ADP-ribose] polymerase tankyrase-2 (Homo sapiens)
# Sequence (Q9H2K2 whole entry, the tested form may be a part): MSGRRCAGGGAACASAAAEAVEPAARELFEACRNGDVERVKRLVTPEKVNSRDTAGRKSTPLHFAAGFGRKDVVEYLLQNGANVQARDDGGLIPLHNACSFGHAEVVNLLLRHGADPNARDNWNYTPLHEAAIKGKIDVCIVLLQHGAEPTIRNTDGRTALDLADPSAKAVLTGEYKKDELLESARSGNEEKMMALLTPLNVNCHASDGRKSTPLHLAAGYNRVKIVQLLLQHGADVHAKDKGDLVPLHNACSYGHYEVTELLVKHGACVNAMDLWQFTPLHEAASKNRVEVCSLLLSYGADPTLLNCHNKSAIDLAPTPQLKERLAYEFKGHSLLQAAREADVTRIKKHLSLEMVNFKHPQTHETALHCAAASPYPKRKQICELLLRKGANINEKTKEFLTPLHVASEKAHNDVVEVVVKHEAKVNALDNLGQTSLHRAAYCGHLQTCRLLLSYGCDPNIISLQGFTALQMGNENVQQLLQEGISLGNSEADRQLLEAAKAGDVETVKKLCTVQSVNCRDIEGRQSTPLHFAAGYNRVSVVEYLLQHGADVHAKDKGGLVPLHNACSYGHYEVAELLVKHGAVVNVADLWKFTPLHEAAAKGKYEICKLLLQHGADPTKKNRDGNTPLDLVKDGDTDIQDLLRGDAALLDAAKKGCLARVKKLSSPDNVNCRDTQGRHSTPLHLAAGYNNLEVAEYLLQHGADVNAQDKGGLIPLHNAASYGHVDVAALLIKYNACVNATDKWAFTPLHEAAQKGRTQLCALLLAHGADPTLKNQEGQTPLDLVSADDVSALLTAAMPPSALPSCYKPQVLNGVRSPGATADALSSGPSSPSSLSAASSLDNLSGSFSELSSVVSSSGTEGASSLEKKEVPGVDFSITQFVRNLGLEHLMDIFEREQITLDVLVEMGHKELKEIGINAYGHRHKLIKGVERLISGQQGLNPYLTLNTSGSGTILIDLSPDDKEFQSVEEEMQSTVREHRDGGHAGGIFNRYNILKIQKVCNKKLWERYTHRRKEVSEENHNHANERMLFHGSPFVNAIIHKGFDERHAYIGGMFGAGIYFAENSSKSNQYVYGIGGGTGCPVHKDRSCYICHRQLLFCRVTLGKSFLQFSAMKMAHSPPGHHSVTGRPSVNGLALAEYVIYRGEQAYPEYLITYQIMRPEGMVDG
# Assay Info: Inhibition of tankyrase 2 catalytic domain (unknown origin) expressed in Escherichia coli BL21 (DE3) assessed as reduction in ADP-ribosyl transferase activity using NAD+ by chemiluminescence detection based assay
# Experimental Conditions: read-out: pIC50 (converted)
Labelling field: enter Condition met if recorded IC50 is less than 8 µM. Enter Condition not met if it equals or exceeds that cut-off.

Look over these answered cases.
{"columns": ["Compound", "Class"],
 "data": [
  ["O=C1CCN(c2ccccc2C(=O)NCc2ccc(-n3cccn3)cc2)C(=O)N1", "Condition not met"],
  ["O=C1CCN(c2ccccc2C(=O)NCCc2ccc(Br)cc2)C(=O)N1", "Condition met"],
  ["O=C1CCN(c2ccccc2C(=O)NCCc2ccc(Cl)cc2)C(=O)N1", "Condition met"]
]}

Hello, is IC50 of the following compound strictly smaller than 8 µM? COc1ccc2c(c1)C(CC(=O)N[C@@H](CNC(=O)c1ccccc1N1CCC(=O)NC1=O)C(N)=O)CC2=O (some centres not stated)
Condition met

Hello, is IC50 of the following compound strictly smaller than 8 µM? COc1ccc2c(c1)C(CC(=O)N1CCN(C(=O)c3ccccc3N3CCC(=O)NC3=O)CC1)CC2=O (configuration not stated)
Condition met
